Biological target: Mer (Homo sapiens (Human), UniProt Q12866)
Sequence (Q12866 21-999): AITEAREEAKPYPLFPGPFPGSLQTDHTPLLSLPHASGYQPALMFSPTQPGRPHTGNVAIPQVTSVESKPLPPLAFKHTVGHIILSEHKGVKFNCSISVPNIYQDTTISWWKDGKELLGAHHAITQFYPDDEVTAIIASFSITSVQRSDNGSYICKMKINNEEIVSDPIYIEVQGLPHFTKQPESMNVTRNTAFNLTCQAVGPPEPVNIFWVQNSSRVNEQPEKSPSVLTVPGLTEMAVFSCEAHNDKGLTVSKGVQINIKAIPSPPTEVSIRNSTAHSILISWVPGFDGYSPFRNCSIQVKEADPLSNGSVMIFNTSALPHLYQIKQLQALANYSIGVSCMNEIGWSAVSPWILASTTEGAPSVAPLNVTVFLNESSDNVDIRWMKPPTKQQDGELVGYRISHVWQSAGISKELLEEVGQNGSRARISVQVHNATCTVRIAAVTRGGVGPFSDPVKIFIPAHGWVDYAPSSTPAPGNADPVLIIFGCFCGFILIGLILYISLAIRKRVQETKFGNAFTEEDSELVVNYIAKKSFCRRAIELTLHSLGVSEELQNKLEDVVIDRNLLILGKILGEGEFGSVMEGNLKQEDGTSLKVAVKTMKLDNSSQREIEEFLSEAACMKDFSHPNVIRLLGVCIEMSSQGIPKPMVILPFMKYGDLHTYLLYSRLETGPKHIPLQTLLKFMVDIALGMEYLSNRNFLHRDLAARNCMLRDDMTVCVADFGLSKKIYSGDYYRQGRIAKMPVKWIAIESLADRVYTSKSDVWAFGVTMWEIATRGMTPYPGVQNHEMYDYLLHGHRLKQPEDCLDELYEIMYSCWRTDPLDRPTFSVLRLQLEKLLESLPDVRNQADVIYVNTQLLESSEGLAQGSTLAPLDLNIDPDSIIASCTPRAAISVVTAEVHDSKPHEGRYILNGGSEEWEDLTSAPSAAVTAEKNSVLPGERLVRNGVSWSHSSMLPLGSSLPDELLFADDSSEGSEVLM
Test: Microfluidic Capillary Electrophoresis (MCE) kinase activity assay, Mer
Assay type: biochemical
Settings: MCE assay; Mer 2.0 nM, ATP 5.0 uM (at Km), 1.0 μM fluorescent substrate, 180 min incubation
endpoint: IC50

compound	endpoint	observed.value
Cc1cc(CN2CCC(c3cnc(Nc4ccnc(Cl)c4)nc3N[C@H]3CC[C@H](O)CC3)CC2)no1	IC50	< 10 nM
Cc1cc(Nc2ncc(C3CCN(C4CCCC4)CC3)c(N[C@H]3CC[C@H](O)CC3)n2)ccn1	IC50	< 10 nM
COc1cc(Nc2ncc(C3CCN(C4CCCC4)CC3)c(N[C@H]3CC[C@H](O)CC3)n2)ccn1	IC50	< 10 nM
O[C@H]1CC[C@H](Nc2nc(Nc3ccnc(Cl)c3)ncc2C2CCN(Cc3ccccc3)CC2)CC1	IC50	< 10 nM
O[C@H]1CC[C@H](Nc2nc(Nc3ccnc(Cl)c3)ncc2C2CCN(CC3CCC(F)(F)CC3)CC2)CC1	IC50	< 10 nM
NC(=O)c1cc(Nc2ncc(C3CCN(CC4CCCC4)CC3)c(N[C@H]3CC[C@H](O)CC3)n2)ccn1	IC50	< 10 nM
N#Cc1cc(Nc2ncc(C3CCN(CC4CCCC4)CC3)c(N[C@H]3CC[C@H](O)CC3)n2)ccn1	IC50	< 10 nM
O[C@H]1CC[C@H](Nc2nc(Nc3ccnc(Cl)c3)ncc2C2CCN(C3CCCC3)CC2)CC1	IC50	< 10 nM
N#Cc1cc(Nc2ncc(C3CCN(CC4CCC(F)(F)CC4)CC3)c(N[C@H]3CC[C@H](O)CC3)n2)ccn1	IC50	< 10 nM
COc1cc(Nc2ncc(C3CCN(C4CCCC4)CC3)c(N[C@H]3CC[C@H](N)CC3)n2)ccn1	IC50	< 10 nM
CC(F)(F)c1cc(Nc2ncc(C3CCN(CC4CCCC4)CC3)c(N[C@H]3CC[C@H](O)CC3)n2)ccn1	IC50	< 10 nM
O[C@H]1CC[C@H](Nc2nc(Nc3ccnc(Cl)c3)ncc2C2CCN(CC3CCOCC3)CC2)CC1	IC50	< 10 nM
O[C@H]1CC[C@H](Nc2nc(Nc3ccnc(Cl)c3)ncc2C2CCN(C3CC(C4CC4)C3)CC2)CC1 (stereo partly drawn)	IC50	< 10 nM
Cc1cc(Nc2ncc(C3CCN(CC4CCCC4)CC3)c(N[C@H]3CC[C@H](O)CC3)n2)ccn1	IC50	< 10 nM
COc1cc(Nc2ncc(C3CCN(CC4CCCC4)CC3)c(N[C@H]3CC[C@H](O)CC3)n2)ccn1	IC50	< 10 nM

====

Biological target: Tyro3 (Homo sapiens (Human))
Sequence (Q06418 41-890): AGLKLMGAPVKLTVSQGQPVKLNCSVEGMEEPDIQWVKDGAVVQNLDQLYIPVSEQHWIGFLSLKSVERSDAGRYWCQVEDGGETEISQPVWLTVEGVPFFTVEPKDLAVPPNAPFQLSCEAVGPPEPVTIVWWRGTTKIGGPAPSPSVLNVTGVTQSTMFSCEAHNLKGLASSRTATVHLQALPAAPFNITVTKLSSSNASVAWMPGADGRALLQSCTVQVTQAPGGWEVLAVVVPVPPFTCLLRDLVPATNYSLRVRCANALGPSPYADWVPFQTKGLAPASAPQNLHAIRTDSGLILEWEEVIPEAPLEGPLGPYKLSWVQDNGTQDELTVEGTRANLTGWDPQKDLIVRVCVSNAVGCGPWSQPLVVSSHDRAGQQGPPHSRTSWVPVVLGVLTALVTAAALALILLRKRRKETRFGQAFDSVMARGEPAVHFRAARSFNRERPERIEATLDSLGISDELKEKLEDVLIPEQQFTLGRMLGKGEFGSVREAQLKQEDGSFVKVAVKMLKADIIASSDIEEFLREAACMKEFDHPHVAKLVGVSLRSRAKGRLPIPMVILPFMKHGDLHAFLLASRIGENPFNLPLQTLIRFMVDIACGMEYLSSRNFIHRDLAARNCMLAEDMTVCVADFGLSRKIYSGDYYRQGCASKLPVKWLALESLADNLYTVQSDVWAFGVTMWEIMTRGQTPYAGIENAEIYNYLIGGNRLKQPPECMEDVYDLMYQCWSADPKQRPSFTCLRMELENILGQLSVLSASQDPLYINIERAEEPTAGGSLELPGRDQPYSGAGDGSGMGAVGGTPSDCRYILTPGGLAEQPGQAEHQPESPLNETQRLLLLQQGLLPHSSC
Test: Microfluidic Capillary Electrophoresis (MCE) kinase activity assay, Tyro3
Assay type: biochemical
pIC50: −log10 of the molar value.
endpoint: pIC50

line.notation	endpoint	observed.value
COc1cc(Nc2ncc(C3CCN(C)CC3)c(N[C@H]3CC[C@H](O)CC3)n2)ccn1	pIC50	7.00 to 8.00
N#Cc1cc(Nc2ncc(C3CCN(CC4CCCC4)CC3)c(N[C@H]3CC[C@H](O)CC3)n2)ccn1	pIC50	7.00 to 8.00
O[C@H]1CC[C@H](Nc2nc(Nc3ccnc(Cl)c3)ncc2C2CCN(CC3CCOCC3)CC2)CC1	pIC50	7.00 to 8.00
Cc1cc(Nc2ncc(C3CCN(CC4CCCC4)CC3)c(N[C@H]3CC[C@H](O)CC3)n2)ccn1	pIC50	7.00 to 8.00
COc1cc(Nc2ncc(C3CCN(C(=O)OC(C)(C)C)CC3)c(N[C@H]3CC[C@H](O)CC3)n2)ccn1	pIC50	7.00 to 8.00
O[C@H]1CC[C@H](Nc2nc(Nc3ccnc(C(F)(F)F)c3)ncc2C2CCN(CC3CCCC3)CC2)CC1	pIC50	7.00 to 8.00
COc1cc(Nc2ncc(C3CCN(C4CCCC4)CC3)c(N[C@H]3CC[C@H](NC(C)=O)CC3)n2)ccn1	pIC50	4.52 to 6.00
COc1cc(Nc2ncc(C3CCN(CC4CCCC4)CC3)c(N[C@H]3CC[C@H](O)CC3)n2)ccn1	pIC50	7.00 to 8.00
O[C@H]1CC[C@H](Nc2nc(Nc3ccnc(N4CCCC4)c3)ncc2C2CCNCC2)CC1	pIC50	4.52 to 6.00
COc1cccc(Nc2ncc(C3CCN(CC4CCCC4)CC3)c(N[C@H]3CC[C@H](O)CC3)n2)c1	pIC50	7.00 to 8.00
O[C@H]1CC[C@H](Nc2nc(Nc3ccnc(C4CC4)c3)ncc2C2CCNCC2)CC1	pIC50	7.00 to 8.00
COc1cc(Nc2ncc(C3CCNCC3)c(N[C@H]3CC[C@H](NC(C)=O)CC3)n2)ccn1	pIC50	7.00 to 8.00
COc1cc(Nc2ncc(C3CCN(C4CCCC4)CC3)c(N[C@H]3CC[C@H](N(C)C)CC3)n2)ccn1	pIC50	6.00 to 7.00
NC(=O)c1cc(Nc2ncc(C3CCN(CC4CCCC4)CC3)c(N[C@H]3CC[C@H](O)CC3)n2)ccn1	pIC50	7.00 to 8.00
COc1cccc(Nc2ncc(C3CCN(C(=O)C4CCCC4)CC3)c(N[C@H]3CC[C@H](O)CC3)n2)c1	pIC50	6.00 to 7.00
O[C@H]1CC[C@H](Nc2nc(Nc3ccnc(C(F)(F)F)c3)ncc2C2CCN(C3CCCC3)CC2)CC1	pIC50	7.00 to 8.00
Cc1cc(CN2CCC(c3cnc(Nc4ccnc(Cl)c4)nc3N[C@H]3CC[C@H](O)CC3)CC2)no1	pIC50	7.00 to 8.00
Cc1cc(Nc2ncc(C3CCNCC3)c(N[C@H]3CC[C@H](O)CC3)n2)cc(C)n1	pIC50	7.00 to 8.00

====

Readings of pIC50 for the listed molecules
Molecular target: Mer (Homo sapiens (Human), UniProt Q12866)
Assay: Microfluidic Capillary Electrophoresis (MCE) kinase activity assay, Mer
Type: biochemical
pIC50: −log10 of the molar value.
endpoint: pIC50

line.notation	endpoint	observed.value
Cc1cc(Nc2ncc(C3CCNCC3)c(N[C@H]3CC[C@H](O)CC3)n2)cc(C)n1	pIC50	4.52 to 6.00
O[C@H]1CC[C@H](Nc2nc(Nc3ccnc(Cl)c3)ncc2C2CCNCC2)CC1	pIC50	7.00 to 8.00
COc1cc(Nc2ncc(C3CCNCC3)c(N[C@H]3CC[C@H](NC(C)=O)CC3)n2)ccn1	pIC50	7.00 to 8.00
COc1cc(Nc2ncc(C3CCN(C(=O)OC(C)(C)C)CC3)c(N[C@H]3CC[C@H](O)CC3)n2)ccn1	pIC50	7.00 to 8.00
COc1cc(Nc2ncc(C3CCN(C4CCCC4)CC3)c(N[C@H]3CC[C@H](NC(C)=O)CC3)n2)ccn1	pIC50	6.00 to 7.00
